- TARGET_DESC: T1, TTD (residues 134–285) of UHRF1 (Homo sapiens, UniProt Q96T88)
- T1 construct: TTD (residues 134–285); GST (N, cleaved yes); made in house; host or cells: E. coli BL21 (DE3)
- T1 sequence (Q96T88 134-285): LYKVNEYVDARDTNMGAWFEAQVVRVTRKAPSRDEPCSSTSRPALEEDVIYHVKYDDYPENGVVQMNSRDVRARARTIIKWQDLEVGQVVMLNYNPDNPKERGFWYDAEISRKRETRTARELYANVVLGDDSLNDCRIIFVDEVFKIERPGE
- ASSAY_INFO: ITC, TTD titrated into Spacer variants and other UHRF1 fragments
- Type: binding
- SETTINGS: ITC, TTD in syringe
OBSERVED_PROPERTY: ΔS (cal/mol/deg)

Some solved entries appear below for comparison.
MOLECULE: Spacer∆650-654: internal deletion of the Spacer, residues 650–654 (protein, left off: GST, end not stated, cleaved) PGPWTKEGKDRIKKLGLTMQYPEGYLEALANREREKENSKREEEEQQEGGFASPRTGKGKWKRGPSRAGSPRRTSKKTKVEPY
ΔS [cal/mol/deg]: 2.57
//
MOLECULE: Spacer∆665-669: internal deletion of the Spacer, residues 665–669 (protein, left off: GST, end not stated, cleaved) PGPWTKEGKDRIKKLGLTMQYPEGYLEALANREREKENSKREEEEQQEGGFASPRTGKGKWKRKSAGGGPSRAGSPRRKVEPY
ΔS [cal/mol/deg]: -12.9
//
MOLECULE: SpacerS666D: mutation S666D of the Spacer, negative control (protein, left off: GST, end not stated, cleaved, mutation S666D of the Spacer, negative control) PGPWTKEGKDRIKKLGLTMQYPEGYLEALANREREKENSKREEEEQQEGGFASPRTGKGKWKRKSAGGGPSRAGSPRRTDKKTKVEPY
ΔS [cal/mol/deg]: -14.9
//
MOLECULE: SpacerS651D: mutation S651D of the Spacer (protein, left off: GST, end not stated, cleaved, mutation S651D of the Spacer) PGPWTKEGKDRIKKLGLTMQYPEGYLEALANREREKENSKREEEEQQEGGFASPRTGKGKWKRKDAGGGPSRAGSPRRTSKKTKVEPY
ΔS [cal/mol/deg]: -19.3
//
MOLECULE: SpacerS639D: mutation S639D of the Spacer, negative control (protein, left off: GST, end not stated, cleaved, mutation S639D of the Spacer, negative control) PGPWTKEGKDRIKKLGLTMQYPEGYLEALANREREKENSKREEEEQQEGGFADPRTGKGKWKRKSAGGGPSRAGSPRRTSKKTKVEPY
ΔS [cal/mol/deg]: -11.4

(1) Spacer∆655-659: internal deletion of the Spacer, residues 655–659 (protein, left off: GST, end not stated, cleaved) PGPWTKEGKDRIKKLGLTMQYPEGYLEALANREREKENSKREEEEQQEGGFASPRTGKGKWKRKSAGGGSPRRTSKKTKVEPY
(2) Spacer∆660-664: internal deletion of the Spacer, residues 660–664 (protein, left off: GST, end not stated, cleaved) PGPWTKEGKDRIKKLGLTMQYPEGYLEALANREREKENSKREEEEQQEGGFASPRTGKGKWKRKSAGGGPSRATSKKTKVEPY
In: Thinking about recorded ΔS values, which is higher, 1 or 2 ? // output: label of the selected item
Out: 1
(1: -0.906 cal/mol/deg, 2: -10.2 cal/mol/deg)
